# Test system: Mycobacterium tuberculosis
# Method notes: Antimycobacterial activity against multidrug-resistant Mycobacterium tuberculosis 8666/2010 after 14 days by micromethod
# Format: functional
# Condition description: 8666/2010, 336 h
Metric name: MIC
Could you write the number and then its unit?

Ask: Look up MIC: "O=[N+]([O-])c1cc(-c2nnc(SCc3ccc(Br)cc3)o2)cc([N+](=O)[O-])c1"
Reply: 0.03 µM

Ask: What do you have for "CC(C)/N=c1\cc2n(-c3ccc(Cl)cc3)c3ccccc3nc-2cc1Nc1ccc(Cl)cc1" ?
Reply: 2 µM

Ask: What do you have for "O=[N+]([O-])c1cc(-c2nnc(SCc3ccc(Cl)cc3)o2)cc([N+](=O)[O-])c1" ?
Reply: 0.03 µM

Ask: What do you have for "O=[N+]([O-])c1cc(-c2nnc(SCc3cccc(Cl)c3)o2)cc([N+](=O)[O-])c1" ?
Reply: 0.03 µM

Ask: What do you have for "O=[N+]([O-])c1cc(-c2nnc(SCc3ccc(Cl)c(Cl)c3)o2)cc(C(F)(F)F)c1" ?
Reply: 0.5 µM

Ask: What do you have for "O=[N+]([O-])c1cc(-c2nnc(SCc3ccccc3)o2)cc(C(F)(F)F)c1" ?
Reply: 1 µM

Ask: What do you have for "CC[C@@H](CO)NCCN[C@@H](CC)CO" ?
Reply: 16 µM

* * *

# Tested on: Mycobacterium tuberculosis
# Method notes: Antimycobacterial activity against multidrug-resistant Mycobacterium tuberculosis 8666/2010 after 14 days by micromethod
# Type: functional
# Condition description: 8666/2010, 336 h
Metric name: MIC

Ask: So what MIC did "NNC(=O)c1ccncc1" get with Mycobacterium tuberculosis?
Reply: 32 µM

Ask: What do you have for "O=[N+]([O-])c1cc(-c2nnc(SCc3ccc(Cl)c(Cl)c3)o2)cc([N+](=O)[O-])c1" ?
Reply: 0.03 µM

Ask: What do you have for "NCC[C@H](O)C(=O)N[C@@H]1C[C@H](N)[C@@H](O[C@H]2O[C@H](CN)[C@@H](O)[C@H](O)[C@H]2O)[C@H](O)[C@H]1O[C@H]1O[C@H](CO)[C@@H](O)[C@H](N)[C@H]1O" ?
Reply: 2 µM

Ask: What do you have for "O=[N+]([O-])c1cc(-c2nnc(SCc3ccccc3Cl)o2)cc([N+](=O)[O-])c1" ?
Reply: 0.06 µM

* * *

# Tested on: Mycobacterium tuberculosis
# Method notes: Antimycobacterial activity against multidrug-resistant Mycobacterium tuberculosis 7357/1998 after 14 days by micromethod
# Type: functional
# Condition description: 7357/1998, 336 h
Param label: returns true (1) when MIC < 0.06 µM, returns false (0) otherwise, including exact equality.

Ask: Hi there! Is MIC for "O=[N+]([O-])c1cc(-c2nnc(SCc3ccc(Cl)c(Cl)c3)o2)cc(C(F)(F)F)c1" below 0.06 µM, do you know?
Reply: false (0)

Ask: What do you have for CN[C@@H]1[C@H](O[C@H]2[C@H](O[C@H]3[C@H](O)[C@@H](O)[C@H](N=C(N)N)[C@@H](O)[C@@H]3N=C(N)N)O[C@@H](C)[C@]2(O)C=O)O[C@@H](CO)[C@H](O)[C@H]1O [STREPTOMYCIN] ?
Reply: false (0)

Ask: What do you have for "O=[N+]([O-])c1cc(-n2nnnc2SCc2ccc(Cl)cc2)cc([N+](=O)[O-])c1" ?
Reply: false (0)

Ask: What do you have for "COc1ccc(CSc2nnc(-c3cc([N+](=O)[O-])cc([N+](=O)[O-])c3)o2)cc1" ?
Reply: true (1)

Ask: What do you have for CC(C)/N=c1\cc2n(-c3ccc(Cl)cc3)c3ccccc3nc-2cc1Nc1ccc(Cl)cc1 [CLOFAZIMINE] ?
Reply: false (0)

Ask: What do you have for CO[C@H]1/C=C/O[C@@]2(C)Oc3c(C)c(O)c4c(O)c(c(/C=N/N5CCN(C)CC5)c(O)c4c3C2=O)NC(=O)/C(C)=C\C=C\[C@H](C)[C@H](O)[C@@H](C)[C@@H](O)[C@@H](C)[C@H](OC(C)=O)[C@@H]1C [RIFAMPIN] ?
Reply: false (0)

Ask: What do you have for "O=[N+]([O-])c1cc(-c2nnc(SCc3ccc(Cl)c(Cl)c3)o2)cc([N+](=O)[O-])c1" ?
Reply: true (1)

Ask: What do you have for "O=[N+]([O-])c1cc(-c2nnc(SCc3ccccc3)o2)cc(C(F)(F)F)c1" ?
Reply: false (0)

Ask: What do you have for NNC(=O)c1ccncc1 [ISONIAZID] ?
Reply: false (0)

Ask: What do you have for "O=[N+]([O-])c1cc(-c2nnc(SCc3ccc(Cl)cc3)o2)cc([N+](=O)[O-])c1" ?
Reply: true (1)

Ask: What do you have for CC1COc2c(N3CCN(C)CC3)c(F)cc3c(=O)c(C(=O)O)cn1c23 (stereo not drawn) [OFLOXACIN] ?
Reply: false (0)

Ask: What do you have for "O=[N+]([O-])c1cc(-n2nnnc2SCc2ccc(Cl)c(Cl)c2)cc([N+](=O)[O-])c1" ?
Reply: false (0)

* * *

For each of the compounds below, state its MIC.
# System: Mycobacterium tuberculosis
# Method notes: Antimycobacterial activity against multidrug-resistant Mycobacterium tuberculosis 8666/2010 after 14 days by micromethod
# Format: functional
# Condition description: 8666/2010, 336 h

Ask: So what MIC did "O=[N+]([O-])c1cc(-n2nnnc2SCc2ccc(Cl)cc2)cc([N+](=O)[O-])c1" get with Mycobacterium tuberculosis?
Reply: 0.5 µM

Ask: What do you have for "COc1ccc(CSc2nnc(-c3cc([N+](=O)[O-])cc([N+](=O)[O-])c3)o2)cc1" ?
Reply: 0.03 µM

Ask: What do you have for "O=[N+]([O-])c1cc(-n2nnnc2SCc2ccc(Cl)c(Cl)c2)cc([N+](=O)[O-])c1" ?
Reply: 0.25 µM

Ask: What do you have for CC1COc2c(N3CCN(C)CC3)c(F)cc3c(=O)c(C(=O)O)cn1c23 (stereo unspecified) ?
Reply: 8 µM

Ask: What do you have for "CO[C@H]1/C=C/O[C@@]2(C)Oc3c(C)c(O)c4c(O)c(c(/C=N/N5CCN(C)CC5)c(O)c4c3C2=O)NC(=O)/C(C)=C\C=C\[C@H](C)[C@H](O)[C@@H](C)[C@@H](O)[C@@H](C)[C@H](OC(C)=O)[C@@H]1C" ?
Reply: > 8 µM

Ask: What do you have for "CN[C@@H]1[C@H](O[C@H]2[C@H](O[C@H]3[C@H](O)[C@@H](O)[C@H](N=C(N)N)[C@@H](O)[C@@H]3N=C(N)N)O[C@@H](C)[C@]2(O)C=O)O[C@@H](CO)[C@H](O)[C@H]1O" ?
Reply: > 32 µM

* * *

For each of the molecules below, state its MIC.
# System: Mycobacterium tuberculosis
# Method notes: Antimycobacterial activity against multidrug-resistant Mycobacterium tuberculosis 7357/1998 after 14 days by micromethod
# Type: functional
# Condition description: 7357/1998, 336 h
Give a bare numeral; the unit µM is implied.

Ask: Look up MIC: "O=[N+]([O-])c1cc(-c2nnc(SCc3ccc(Br)cc3)o2)cc([N+](=O)[O-])c1"
Reply: 0.03

Ask: What do you have for "O=[N+]([O-])c1cc(-c2nnc(SCc3cccc(Cl)c3)o2)cc([N+](=O)[O-])c1" ?
Reply: 0.03

Ask: What do you have for "NCC[C@H](O)C(=O)N[C@@H]1C[C@H](N)[C@@H](O[C@H]2O[C@H](CN)[C@@H](O)[C@H](O)[C@H]2O)[C@H](O)[C@H]1O[C@H]1O[C@H](CO)[C@@H](O)[C@H](N)[C@H]1O" ?
Reply: 1

Ask: What do you have for "CC[C@@H](CO)NCCN[C@@H](CC)CO" ?
Reply: 16

* * *

For each of the compounds below, state its MIC.
# Test system: Mycobacterium tuberculosis
# Method notes: Antimycobacterial activity against multidrug-resistant Mycobacterium tuberculosis Praha 131 after 21 days by micromethod
# Format: functional
# Condition description: Praha 131, 504 h
Give a bare numeral; the unit µM is implied.

Ask: Look up MIC: "O=[N+]([O-])c1cc(-c2nnc(SCc3cccc(Cl)c3)o2)cc([N+](=O)[O-])c1"
Reply: 0.06

Ask: What do you have for "COc1ccc(CSc2nnc(-c3cc([N+](=O)[O-])cc([N+](=O)[O-])c3)o2)cc1" ?
Reply: 0.06

Ask: What do you have for "O=[N+]([O-])c1cc(-c2nnc(SCc3ccc(Cl)c(Cl)c3)o2)cc([N+](=O)[O-])c1" ?
Reply: 0.03

Ask: What do you have for "O=[N+]([O-])c1cc(-n2nnnc2SCc2ccc(Cl)c(Cl)c2)cc([N+](=O)[O-])c1" ?
Reply: 0.5

Ask: What do you have for "O=[N+]([O-])c1cc(-c2nnc(SCc3ccc(Cl)c(Cl)c3)o2)cc(C(F)(F)F)c1" ?
Reply: 0.5

Ask: What do you have for "O=[N+]([O-])c1cc(-c2nnc(SCc3ccc(Br)cc3)o2)cc([N+](=O)[O-])c1" ?
Reply: 0.06

Ask: What do you have for "O=[N+]([O-])c1cc(-c2nnc(SCc3ccccc3)o2)cc(C(F)(F)F)c1" ?
Reply: 2

Ask: What do you have for "O=[N+]([O-])c1cc(-n2nnnc2SCc2ccc(Cl)cc2)cc([N+](=O)[O-])c1" ?
Reply: 0.5

Ask: What do you have for "O=[N+]([O-])c1cc(-c2nnc(SCc3ccc(Cl)cc3)o2)cc([N+](=O)[O-])c1" ?
Reply: 0.06

Ask: What do you have for "O=[N+]([O-])c1cc(-c2nnc(SCc3ccccc3Cl)o2)cc([N+](=O)[O-])c1" ?
Reply: 0.125
